System: Nuclear hormone receptor DAF-12 (Heterodera glycines), GAL4 fusion
Assay: H. glycines DAF-12 receptor agonists, primary screen, cell-based, luminescence, HEK293, GAL4 fusion, UAS-luciferase (AID 687014);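 note: 0% = DMSO wells and 100% = sodium butyrate wells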
Conditions: HEK293 GAL4-hgDAF12 UAS-luciferase reporter, agonist luminescence; at 6.8 µM; normalized to butyrate control
In all, about 370,000 compounds went through this assay and about 6,800 (1.8%) were called active.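 Rule for the calls: active = activation above a cutoff set at the mean of all screened compounds plus 3 SD (cut at about 10% in these data); inactive = the rest.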 Only a selection was taken, and actives are over-represented in it overall.
Hi! Could you answer with just one of these? y = active, n = inactive

Observe how each entry below is paired with its result.
INSERT INTO assay_data (compound, study_target, label_value) VALUES
  ('COc1ccc(C(=O)NNC(=O)c2cnccn2)cc1[N+](=O)[O-]', 'Nuclear hormone receptor DAF-12 (Heterodera glycines), GAL4 fusion', 'n'),
  ('COc1ccc(C(=O)O/N=C(\N)c2ccccn2)cc1[N+](=O)[O-]', 'Nuclear hormone receptor DAF-12 (Heterodera glycines), GAL4 fusion', 'y'),
  ('COc1ccc(Nc2ccc3ccccc3c2)cc1', 'Nuclear hormone receptor DAF-12 (Heterodera glycines), GAL4 fusion', 'y'),
  ('CC1CCN(c2ccc(C(=O)O)cc2NS(=O)(=O)c2ccc(Br)s2)CC1', 'Nuclear hormone receptor DAF-12 (Heterodera glycines), GAL4 fusion', 'n'),
  ('C=CCOC/C=C/C#CCN(CC=C)Cc1ccc(OC)cc1OC', 'Nuclear hormone receptor DAF-12 (Heterodera glycines), GAL4 fusion', 'n');

[Q] # fetch the recorded call for Cc1ccc(C(=O)O/N=C(\N)c2ccccn2)cc1Cl here
[A] n

[Q] Queued: CC(OC(=O)Cc1ccc(F)cc1)C(=O)N1CCc2ccccc21 (configuration not stated)
[A] n

[Q] Moving on to CC(=O)OC12CCCN(C1)/C(=C/c1ccncc1)C2 (configuration not stated)
[A] n

---

Tested on: Nuclear hormone receptor DAF-12 (Heterodera glycines), GAL4 fusion
Test: H. glycines DAF-12 receptor agonists, primary screen, cell-based, luminescence, HEK293, GAL4 fusion, UAS-luciferase (AID 687014);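 note: 0% = DMSO wells and 100% = sodium butyrate wells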
Details: HEK293 GAL4-hgDAF12 UAS-luciferase reporter, agonist luminescence; at 6.8 µM; normalized to butyrate control
In all, about 370,000 compounds went through this assay and about 6,800 (1.8%) were called active.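 The calls were made as follows: active = activation above a cutoff set at the mean of all screened compounds plus 3 SD (cut at about 10% in these data); inactive = the rest.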 The list comes from a sample in which actives are over-represented; it also holds close analogues and randomly drawn compounds.
Answer with one of the outcomes true (active), false (inactive)

Example results:
INSERT INTO assay_data (compound, label_value) VALUES
  ('CCC(C)(C)C1CCC(=NNC(=O)c2ccc(Br)o2)CC1 (stereo unspecified)', 'false'),
  ('O=C(COc1ccc(S(=O)(=O)N2CCCC2)cc1[N+](=O)[O-])N1CCCCC1', 'false'),
  ('O=[N+]([O-])c1cc(S(=O)(=O)N2CCCC2)ccc1NN=C1CCCC1', 'true'),
  ('CC(=O)c1cc(-c2ccc3ccccc3c2)c(=O)n2c1CCC2', 'false'),
  ('O=C1CCC2(CCC(c3ccc(Cl)cc3)CC2)N1CCO (stereo unspecified)', 'false'),
  ('COc1ccc(OCC(=O)NN2Cc3ccccc3C2=N)cc1', 'false'),
  ('O=C(OC12CCCN(C1)/C(=C/c1cccnc1)C2)C1CCCC1 (stereo unspecified)', 'false'),
  ('CC(C)(C)C1CCC(=NNC(=O)c2cc(-c3ccccc3)n[nH]2)CC1 (stereo unspecified)', 'false');

[Q] Please let me know the test result on file for NS(=O)(=O)c1ccc2nc(NC(=O)C3=COCCO3)sc2c1 .
[A] true

[Q] Thanks! And O=[N+]([O-])c1cc(C(F)(F)F)ccc1NN=C1CCCC1 ?
[A] false

[Q] Note, next up: NS(=O)(=O)c1ccc2nc(NC(=O)CS(=O)(=O)c3ccc(F)cc3)sc2c1
[A] false

---

A collection of molecules and their measured activation
Tested on: Nuclear hormone receptor DAF-12 (Heterodera glycines), GAL4 fusion
Assay: H. glycines DAF-12 receptor agonists, primary screen, cell-based, luminescence, HEK293, GAL4 fusion, UAS-luciferase (AID 687014);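 note: 0% = DMSO wells and 100% = sodium butyrate wells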
Details: HEK293 GAL4-hgDAF12 UAS-luciferase reporter, agonist luminescence; at 6.8 µM; active compounds read high; normalized to butyrate control
The campaign covered roughly 370,000 compounds. About 6,800 (1.8%) were called active. Many of the other results were omitted from the sample, so actives are more common in it than they were.

INSERT INTO results (molecule, reported_measurement) VALUES
  ('Cc1ccc(NC(=O)c2cc3ccccc3o2)cc1', '15.2% (active)'),
  ('O=C(c1cc(-c2ccccc2O)on1)N1CCCC1', '13.1% (active)'),
  ('CSCCC(NC(=O)c1ccco1)C(=O)Nc1cc(C)ccn1 (configuration not stated)', '11.9% (active)'),
  ('C/C(=N\NC(=S)Nc1ccc(C)cc1)c1cc2ccccc2o1', '0.54% (inactive)'),
  ('COc1ccc(OCc2cc(C(=O)N3CCCC3)no2)c2ccccc12', '7.54% (inactive)');

Okay, next one:
[Q] Which activation is reported for this molecule? Cc1nc2nc[nH]n2c(=O)c1C/C=C/c1ccccc1
[A] -0.77% (inactive)

---

Parameter: activation. Scope: all listed entries.
Tested on: Nuclear hormone receptor DAF-12 (Heterodera glycines), GAL4 fusion
Test: H. glycines DAF-12 receptor agonists, primary screen, cell-based, luminescence, HEK293, GAL4 fusion, UAS-luciferase (AID 687014);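 note: 0% = DMSO wells and 100% = sodium butyrate wells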
Conditions: HEK293 GAL4-hgDAF12 UAS-luciferase reporter, agonist luminescence; at 6.8 µM; active compounds read high; normalized to butyrate control
Hit rate of the full screen: of about 370,000 compounds, about 6,800 (1.8%) were called active. What follows is part of a selection rich in actives, with near analogues and random picks from the rest.
Write the value in % as a bare number.

[Q] # query: activation | item CCOc1ccc(-n2c(SCC(=O)Nc3cc(C)c(NC(=O)c4ccccc4)cc3OC)nnc2-c2cccc(Cl)c2)cc1 | system: Nuclear hormone receptor DAF-12 (Heterodera glycines), GAL4 fusion
[A] -2.83

[Q] Queued: CN(c1ccccc1)S(=O)(=O)c1ccc(C(=O)NCCc2ccccc2)cc1
[A] 4.14

[Q] Another compound to look at: CN1C[C@]2(C=C3CCCCC3n3c(=O)n(-c4ccccc4)c(=O)n32)N=C1NC(=O)c1ccccc1 (stereo not given in full)
[A] 2.4

[Q] Again, but for COc1ccc(CSc2nnc(SCC(=O)Nc3ccccc3C(F)(F)F)s2)cc1
[A] -0.44

[Q] Also check O=C(CNC(=O)c1ccccc1F)c1ccc(Br)cc1
[A] 11.4

[Q] Another: NS(=O)(=O)c1cc(C(=O)NCCOc2ccccc2)c(Cl)cc1Cl
[A] -5.7

---

System: Nuclear hormone receptor DAF-12 (Heterodera glycines), GAL4 fusion
Experiment: H. glycines DAF-12 receptor agonists, primary screen, cell-based, luminescence, HEK293, GAL4 fusion, UAS-luciferase (AID 687014);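 note: 0% = DMSO wells and 100% = sodium butyrate wells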
Conditions: HEK293 GAL4-hgDAF12 UAS-luciferase reporter, agonist luminescence; at 6.8 µM; normalized to butyrate control
Out of some 370,000 compounds screened, about 6,800 (1.8%) were called active.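 How the source made its calls: active means activation above a cutoff set at the mean of all screened compounds plus 3 SD (cut at about 10% in these data); inactive means the rest.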 The list comes from a sample in which actives are over-represented; it also holds close analogues and randomly drawn compounds.
Answer with one of the outcomes active, inactive

// below: answered compounds
INSERT INTO assay_data (compound, study_target, label_value) VALUES
  ('CCc1ccc(Oc2coc3cc(O)ccc3c2=O)cc1', 'Nuclear hormone receptor DAF-12 (Heterodera glycines), GAL4 fusion', 'inactive'),
  ('O=C(CCc1ccccc1)Nc1ccc(NC(=O)C2CC2)nc1', 'Nuclear hormone receptor DAF-12 (Heterodera glycines), GAL4 fusion', 'inactive'),
  ('COC(=O)C[C@@H]1C=C[C@@H](NC(=O)c2ccc3c(c2)OCO3)[C@@H](CO)O1', 'Nuclear hormone receptor DAF-12 (Heterodera glycines), GAL4 fusion', 'inactive'),
  ('CCOC(=O)c1c(S(=O)(=O)Nc2cccc(Cl)c2)c(C)n(C)c1C', 'Nuclear hormone receptor DAF-12 (Heterodera glycines), GAL4 fusion', 'inactive'),
  ('C=CCN1C(=O)[C@H](CC(=O)N2CCN(C(=O)OCC)CC2)[C@@]2(C(=O)OCC)CCCC=C12', 'Nuclear hormone receptor DAF-12 (Heterodera glycines), GAL4 fusion', 'inactive');

[Q] // return assay outcome for COC(=O)[C@@]12CCCCC=C1N(CCc1ccc(Cl)cc1)C(=O)[C@H]2CC(=O)NCc1ccc(OC)c(OC)c1
[A] inactive

[Q] Another: CCOc1ccc(OCc2cccc(C(=O)N(CC)CC)c2)cc1
[A] active

[Q] Try the compound O=C(/C=C/c1ccc2c(c1)OCCO2)c1ccc(O)cc1
[A] active

[Q] Try this compound next: COc1ccc(N(CC(=O)NCc2ccc(F)cc2)C(=O)CCC(=O)Nc2nccs2)cc1
[A] inactive

[Q] Repeat for the following compound: CC(=O)O[C@@]1(C(C)=O)CCC2[C@H]3C=C(C)C4=CC(=O)CC[C@@]4(C)C3CC[C@]21C (some centres not stated)
[A] inactive

[Q] Now this one: COc1ccc(OC)c(/C=C/C(=O)c2ccc3c(c2)OCO3)c1
[A] inactive

[Q] Now consider CC(=NNC(=S)N1CCCCCC1)c1ccccn1 .
[A] inactive
